What pEC50 was measured for each of the following?
- study target: fVIIa-sTF (Homo sapiens)
- Sequence (P08709 61-212 limits assumed): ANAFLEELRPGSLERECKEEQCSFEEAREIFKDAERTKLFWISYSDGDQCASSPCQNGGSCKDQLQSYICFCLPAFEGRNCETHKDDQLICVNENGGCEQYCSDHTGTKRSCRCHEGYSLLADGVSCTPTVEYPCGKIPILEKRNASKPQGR
- Sequence (P08709 213-466 limits assumed): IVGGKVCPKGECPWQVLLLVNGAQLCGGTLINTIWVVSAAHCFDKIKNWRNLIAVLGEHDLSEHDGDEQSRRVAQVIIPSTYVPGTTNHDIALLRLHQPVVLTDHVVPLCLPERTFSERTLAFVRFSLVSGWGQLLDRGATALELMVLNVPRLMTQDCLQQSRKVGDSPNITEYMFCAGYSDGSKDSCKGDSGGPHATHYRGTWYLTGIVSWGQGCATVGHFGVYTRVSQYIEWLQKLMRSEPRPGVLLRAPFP
- Sequence (P13726 33-251 partner limits assumed): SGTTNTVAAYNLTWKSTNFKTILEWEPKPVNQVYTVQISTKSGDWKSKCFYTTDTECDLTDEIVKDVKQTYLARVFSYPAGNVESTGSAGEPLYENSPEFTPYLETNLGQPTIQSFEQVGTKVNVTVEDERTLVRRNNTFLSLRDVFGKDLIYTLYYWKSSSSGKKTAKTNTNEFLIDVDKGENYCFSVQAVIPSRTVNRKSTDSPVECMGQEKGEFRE
- experimental details: fVIIa-sTF inhibitory assay
- protocol conditions: 95% confidence using GraphPad Prism 7
Numbers only, as −log10 of the molar value.

- smiles input: "CC(=O)N[C@@H](CC(C)C)C(=O)N[C@@H](CC(C)C)C(=O)N[C@H](C=O)CCCNC(=N)N"
  study target: "fVIIa-sTF (Homo sapiens)"
  pEC50: 4.85

Now look at this one.
Prompt line: Recorded pEC50 of "CCCCCC(=O)N[C@@H](CC(=O)O)C(=O)N[C@@H]1C(=O)N[C@@H](CCCNC(=N)N)C(=O)N[C@H]2CC[C@@H](O)N(C2=O)[C@@H]([C@@H](C)CC)C(=O)N(C)[C@@H](Cc2ccc(O)cc2)C(=O)N[C@@H]([C@@H](C)CC)C(=O)O[C@@H]1C" , please.
Response line: 4.97

---

- study target: thrombin (Homo sapiens, UniProt P00734)
- Construct: subjected to fVIIa-sTF and thrombin assays
- experimental details: thrombin inhibitory assay
- Type: biochemical
quantity kind: pEC50
Answers are plain numbers, as −log10 of the molar value.

Prompt line: Recorded pEC50 of N=C(N)c1ccc(CS(=O)(=O)F)cc1 [APMSF, 4-amidinophenylmethanesulfonylfluoride] , please.
Response line: 5.68

---

- study target: thrombin (Homo sapiens, UniProt P00734)
- Construct: subjected to fVIIa-sTF and thrombin assays
- experimental details: thrombin inhibitory assay
- Assay type: biochemical
- protocol conditions: 95% confidence using GraphPad Prism 7; read-out: Thrombin: EC50
quantity kind: EC50 (µM)
One number for each entry, in µM.

// below: answered compounds
- compound: "CC(C)CC(NC(=O)C(O)Cc1ccc(O)cc1)C(=O)N1C(C(=O)NC2CCCN(C(=N)N)C2O)CC2CCC(O)CC21 (stereo not drawn)"
  u: "µM"
  EC50: 0.66
- compound: "CC(=O)N[C@@H](CC(C)C)C(=O)N[C@@H](CC(C)C)C(=O)N[C@H](C=O)CCCNC(=N)N"
  u: "µM"
  EC50: 18.3

Prompt line: Recorded EC50 of "CCCCCC(=O)N[C@@H](CC(=O)O)C(=O)N[C@@H]1C(=O)N[C@@H](CCCNC(=N)N)C(=O)N[C@H]2CC[C@@H](O)N(C2=O)[C@@H]([C@@H](C)CC)C(=O)N(C)[C@@H](Cc2ccc(O)cc2)C(=O)N[C@@H]([C@@H](C)CC)C(=O)O[C@@H]1C" , please.
Response line: 26.9
